For each record, write down the corresponding % bonded after 3 washing steps.
Tested on: E. coli cells
Test: Recovery of porphyrine bonded to E. coli cells after dark incubation and washing steps
Format: cell-based
Settings: 1 μM porphyrine, 5 minutes, after 3 washing steps
Give the number first and the unit second.

The value of % bonded after 3 washing steps measured for the compound CCCCCCCCCCCCCC[n+]1ccc(-c2c3nc(c(-c4cc[n+](C)cc4)c4ccc([nH]4)c(-c4cc[n+](C)cc4)c4nc(c(-c5cc[n+](C)cc5)c5ccc2[nH]5)C=C4)C=C3)cc1 [mono-C14] turned out to be 42.4%

The value of % bonded after 3 washing steps measured for the compound C[n+]1ccc(-c2c3nc(c(-c4cc[n+](C)cc4)c4ccc([nH]4)c(-c4cc[n+](Cc5ccccc5)cc4)c4nc(c(-c5cc[n+](C)cc5)c5ccc2[nH]5)C=C4)C=C3)cc1 [mono-benzyl] turned out to be 28.2%

The value of % bonded after 3 washing steps measured for the compound CCCCCCCCCC[n+]1ccc(-c2c3nc(c(-c4cc[n+](C)cc4)c4ccc([nH]4)c(-c4cc[n+](C)cc4)c4nc(c(-c5cc[n+](C)cc5)c5ccc2[nH]5)C=C4)C=C3)cc1 [mono-C10] turned out to be 40.4%

The value of % bonded after 3 washing steps measured for the compound CCCCCCCCCCCCCCCCCCCCCC[n+]1ccc(-c2c3nc(c(-c4cc[n+](C)cc4)c4ccc([nH]4)c(-c4cc[n+](C)cc4)c4nc(c(-c5cc[n+](C)cc5)c5ccc2[nH]5)C=C4)C=C3)cc1 [mono-C22] turned out to be 59.4%

The value of % bonded after 3 washing steps measured for the compound CCCCCC[n+]1ccc(-c2c3nc(c(-c4cc[n+](CCCCCC)cc4)c4ccc([nH]4)c(-c4cc[n+](CCCCCC)cc4)c4nc(c(-c5cc[n+](CCCCCC)cc5)c5ccc2[nH]5)C=C4)C=C3)cc1 [tetra-C6] turned out to be 57.0%

These data points were gathered from patent US20030153546A1.
